Let's look at some pKi data for Prothrombin (Bos taurus, UniProt P00735) that I collected from the literature.
Please express pKi as -log10 of the molar concentration.

As a guide, the following entries are already answered.
molecule | measurement
N=C(N)c1ccc(CNC(=O)[C@@H]2Cc3ccc(cc3)NC(=O)CCN3CCN(CCC(=O)Nc4ccc(cc4)C[C@@H](NS(=O)(=O)c4ccccc4)C(=O)N2)CC3)cc1 | 4.37
N=C(N)c1cccc(C[C@H](NS(=O)(=O)c2ccc3ccccc3c2)C(=O)N2CCCCC2)c1 | 7.19
N=C(N)NCCCC(NS(=O)(=O)c1cccc2c1NCCC2)C(=O)N1CCC(CCO)CC1 (configuration not stated) | 6.31
N=C(N)c1cccc(C[C@H](NS(=O)(=O)c2ccc3ccccc3c2)C(=O)N2CCCc3ccccc32)c1 | 6.92
COC(=O)[C@@H]1CCCN1C(=O)[C@H](Cc1cccc(C(=N)N)c1)NS(=O)(=O)c1ccc2ccccc2c1 | 6.18
CC1CNc2c(cccc2S(=O)(=O)NC(CCCN=C(N)N)C(=O)N2CCC[C@@H](CO)C2)C1 (some centres not stated) | 5.82
N=C(N)c1ccc(C[C@H](NS(=O)(=O)c2ccc3ccccc3c2)C(=O)N2CCCCCC2)cc1 | 7.28
CN(C(=O)[C@H](Cc1ccc(C(N)NN)cc1)NS(=O)(=O)c1ccc2ccccc2c1)C1CCCCC1 (some centres not stated) | 6.82

Q: Data request, read-out pKi, for "CC[C@H](C)[C@@H]1NC(=O)[C@@H]2CCCN2C(=O)[C@@H]2CCCN2C(=O)[C@H]([C@@H](C)CC)NC(=O)[C@H](CO)NC(=O)[C@H](CCCCN)NC(=O)[C@H]([C@@H](C)O)NC(=O)[C@@H]2CSSC[C@H](NC1=O)C(=O)N[C@@H](Cc1ccccc1)C(=O)N1CCC[C@@H]1C(=O)N[C@@H](CC(=O)O)C(=O)NCC(=O)N[C@@H](CCCCNC(=N)N)C(=O)N2"
Result: 5.12

Q: Data request, read-out pKi, for "N=C(N)c1cccc(C[C@H](NS(=O)(=O)c2cccc(NC(=O)CCN)c2)C(=O)N2CCC(CCNC(=O)NC3CCCCC3)CC2)c1"
Result: 6.33

Q: Data request, read-out pKi, for "N=C(N)c1ccc(CNC(=O)[C@@H]2Cc3ccc(cc3)NC(=O)CCN3CCN(CCC(=O)Nc4ccc(cc4)C[C@@H](NC(=O)CCCc4ccccc4)C(=O)N2)CC3)cc1"
Result: 6.15

Q: Data request, read-out pKi, for "COc1ccc(-c2cccc(S(=O)(=O)N[C@@H](Cc3cccc(C(=N)N)c3)C(=O)N3CCN(C(=O)C(C)(C)C)CC3)c2)c(OC)c1"
Result: 7.38

Q: Data request, read-out pKi, for COC(=O)C(Cc1cccc(C(N)N)c1)NC(=O)CNS(=O)(=O)c1ccc(C)cc1 (configuration not stated)
Result: 5.41

Q: Data request, read-out pKi, for CC1CNc2c(cccc2S(=O)(=O)NC(CCCN=C(N)N)C(=O)N2CCC[C@H]2CO)C1 (some centres not stated)
Result: 7.10

Q: Data request, read-out pKi, for "COCc1ccc(-c2cccc(S(=O)(=O)N[C@@H](Cc3cccc(C(=N)N)c3)C(=O)N3CCC(NC(=O)NC(C)(C)C)CC3)c2)cc1"
Result: 5.75

Q: Data request, read-out pKi, for "CC[C@H](C)[C@@H]1NC(=O)[C@@H]2CCCN2C(=O)[C@@H]2CCCN2C(=O)[C@H]([C@@H](C)CC)NC(=O)[C@H](CO)NC(=O)[C@H](CCCCN)NC(=O)[C@H]([C@@H](C)O)NC(=O)[C@H](CO)NC(=O)[C@H](CCCNC(=N)N)NC(=O)CNC(=O)[C@H](CC(=O)O)NC(=O)[C@H]2CCCN2C(=O)[C@H](Cc2ccccc2)NC(=O)[C@H](CO)NC1=O"
Result: 4.39

Q: Data request, read-out pKi, for "N=C(N)c1cccc(C[C@H](NS(=O)(=O)c2cccc(-c3cccc(Cl)c3Cl)c2)C(=O)N2CCC(CCN)CC2)c1"
Result: 7.70

Q: Data request, read-out pKi, for CC1CNc2c(cccc2S(=O)(=O)NC(CCCN=C(N)N)C(=O)N2CCC(CCO)CC2)C1 (configuration not stated)
Result: 7.28

Q: Data request, read-out pKi, for CC1CNc2c(cccc2S(=O)(=O)NC(CCCN=C(N)N)C(=O)N2CCC(CCNC(=O)CCC(=O)O)CC2)C1 (configuration not stated)
Result: 6.19

Q: Data request, read-out pKi, for "N=C(N)c1cccc(C[C@H](NS(=O)(=O)c2ccc3ccccc3c2)C(=O)N2CCC(C=O)CC2)c1"
Result: 7.43

Q: Data request, read-out pKi, for "CNC(=O)[C@H](Cc1cccc(C(=N)N)c1)NS(=O)(=O)c1ccc(C)cc1"
Result: 4.75
